Recorded values, source ChEMBL document CHEMBL3639268.

biological target: Retinol-binding protein 4 (Homo sapiens, UniProt P02753); experiment: Binding Assay: Streptavidin (20 ul) (10 ug/ml Streptavidin type II (Wako Pure Chemical Industries, Ltd.), 10 mM Tris-HCl (pH 7.5), 10 mM NaCl) was added to a 384 well black plate (Nunc MaxiSorp, Thermo Fisher Scientific Inc.), and the plate was subjected to centrifugation (1000 rpm, 1 min) and coated overnight at 4 C. The plate was washed twice with PBST (PBS, 0.05% Tween 20, 100 ul/well) and blocked with 25% Block Ace (Snow Brand Milk Products Co., Ltd., PBS, 100 ul/well). The plate was subjected to centrifugation (1000 rpm, 1 min) and incubated at room temperature for 4 hr or overnight at 4 C. The plate was washed twice with PBST (PBS, 0.05% Tween 20, 100 ul/well), and biotinylate human TTR (stock solution concentration 1.0 mg/ml) diluted 750-fold with PBST was added at 20 ul/well. The plate was subjected to centrifugation (1000 rpm, 1 min) and stood still at room temperature for 1.5 hr or overnight at 4 C. The plate was washed 3 times with PBST (100 ul/well).
metric_name: IC50 (nM)
Express the result in nM but write the number alone.

Tell us which IC50 value is on record for CC(C)(C)c1ccccc1N1CCN(C(=O)c2nc[nH]n2)CC1
15
